- condition_summary: fish
measured_property: log10 biotransformation half-life (days)

Entry `Clc1cccc(-c2c(Cl)ccc(Cl)c2Cl)c1` , log10 biotransformation half-life (days) reported as 2.47

Entry `Clc1cc(-c2cc(Cl)c(Cl)c(Cl)c2Cl)cc(Cl)c1Cl` , log10 biotransformation half-life (days) reported as 2.32

Entry `CCOP(=O)(Sc1ccccc1)Sc1ccccc1` , log10 biotransformation half-life (days) reported as -1.04

Entry `CCc1ccc(CC)cc1` , log10 biotransformation half-life (days) reported as -0.01

Entry `O=[N+]([O-])c1ccccc1Cl` , log10 biotransformation half-life (days) reported as -0.58

Entry `O=C1c2ccccc2-c2cccc3cccc1c23` , log10 biotransformation half-life (days) reported as -0.69

Entry CCCCC(C)C(C)C (configuration not stated) , log10 biotransformation half-life (days) reported as 1.28

Entry `N#Cc1ccccc1C#N` , log10 biotransformation half-life (days) reported as -0.67

Entry `N#Cc1nn(-c2c(Cl)cc(C(F)(F)F)cc2Cl)c(N)c1S(=O)(=O)C(F)(F)F` , log10 biotransformation half-life (days) reported as 1.05

Entry `CCCCCCc1ccc(-c2ccc(C#N)cc2)cc1` , log10 biotransformation half-life (days) reported as 0.85

Entry `Clc1ccc2c(c1)oc1c(Cl)cccc12` , log10 biotransformation half-life (days) reported as 0.58

Entry `COP(=S)(OC)Oc1ccc(S(C)(=O)=O)c(C)c1` , log10 biotransformation half-life (days) reported as -0.03

Entry `CC(C)=CC=C(C)C` , log10 biotransformation half-life (days) reported as 0.49

Entry `Cc1cc(Cc2cc(C)cc(C(C)(C)C)c2O)c(O)c(C(C)(C)C)c1` , log10 biotransformation half-life (days) reported as 0.03

Entry `BrCCBr` , log10 biotransformation half-life (days) reported as -0.83

Entry `Nc1ccc(Cl)cc1` , log10 biotransformation half-life (days) reported as -0.61

Entry ClC1(Cl)C2(Cl)C3(Cl)C4(Cl)C(Cl)(Cl)C5(Cl)C3(Cl)C1(Cl)C5(Cl)C24Cl (configuration not stated) , log10 biotransformation half-life (days) reported as 1.8

Entry `CCOP(=S)(OCC)Oc1ccc([N+](=O)[O-])cc1` , log10 biotransformation half-life (days) reported as -0.41

Entry `Clc1ccc(-c2ccc(Cl)c(Cl)c2Cl)cc1Cl` , log10 biotransformation half-life (days) reported as 2.06

Entry `CC(Cl)(Cl)Cl` , log10 biotransformation half-life (days) reported as -1.39

Entry `O=[N+]([O-])c1cc(Cl)c(Cl)cc1Cl` , log10 biotransformation half-life (days) reported as -0.64

Entry ClC1C(Cl)C(Cl)C(Cl)C(Cl)C1Cl (configuration not stated) , log10 biotransformation half-life (days) reported as 1.49

Entry `CCCN(CCC)c1c([N+](=O)[O-])cc(C(F)(F)F)cc1[N+](=O)[O-]` , log10 biotransformation half-life (days) reported as 0.62

Entry `Clc1cc(Cl)c(Cl)c(-c2c(Cl)ccc(Cl)c2Cl)c1` , log10 biotransformation half-life (days) reported as 2.32

Entry `CCCCCCCCCCCCCOC(=O)CCCCC(=O)OCCCCCCCCCCCCC` , log10 biotransformation half-life (days) reported as -0.43

Entry `CC(C)CCOCCC(C)C` , log10 biotransformation half-life (days) reported as -0.45

Entry `C=CCCCCCCCCCCCCCC` , log10 biotransformation half-life (days) reported as 1.67

Entry `Clc1cc2oc3cc(Cl)c(Cl)cc3c2cc1Cl` , log10 biotransformation half-life (days) reported as 0.56

Entry `O=[N+]([O-])c1ccc(Cl)cc1C(F)(F)F` , log10 biotransformation half-life (days) reported as -0.36

Entry `Clc1cc(Cl)c(-c2cc(Cl)c(Cl)c(Cl)c2)cc1Cl` , log10 biotransformation half-life (days) reported as 2.43

Entry `Clc1cc2c(cc1Cl)Oc1cc(Cl)c(Cl)cc1O2` , log10 biotransformation half-life (days) reported as 1.78

Entry `Oc1c(Cl)c(Cl)c(Cl)c(Cl)c1Cl` , log10 biotransformation half-life (days) reported as -0.2

Entry `Clc1ccc(Oc2c(Cl)cc(Cl)c(Cl)c2Cl)c(Cl)c1` , log10 biotransformation half-life (days) reported as 2.76

Entry `CCOc1ccc(N)cc1` , log10 biotransformation half-life (days) reported as -1.24

Entry CCOP(=S)(NC(C)CC)Oc1cc(C)ccc1[N+](=O)[O-] (configuration not stated) , log10 biotransformation half-life (days) reported as -0.2

Entry `CC(C)(C)c1ccc(O)c(C(C)(C)C)c1` , log10 biotransformation half-life (days) reported as -0.37

Entry `Clc1ccc2c(oc3c(Cl)c(Cl)c(Cl)c(Cl)c32)c1Cl` , log10 biotransformation half-life (days) reported as 0.43

Entry `Clc1ccc(-c2c(Cl)c(Cl)cc(Cl)c2Cl)c(Cl)c1Cl` , log10 biotransformation half-life (days) reported as 2.5

Entry `c1ccc2c(c1)ccc1ccccc12` , log10 biotransformation half-life (days) reported as 0.7

Entry `Oc1ccccc1Br` , log10 biotransformation half-life (days) reported as -0.24

Entry `Clc1ccccc1Cl` , log10 biotransformation half-life (days) reported as 0.5

Entry `Oc1ccccc1Cl` , log10 biotransformation half-life (days) reported as -0.38

Entry `O=[N+]([O-])c1ccc(Cl)c(Cl)c1Cl` , log10 biotransformation half-life (days) reported as -0.19

Entry `Clc1ccc(Oc2c(Cl)cc(Cl)cc2Cl)c(Cl)c1` , log10 biotransformation half-life (days) reported as 1.69

Entry `NS(=O)(=O)c1ccccc1` , log10 biotransformation half-life (days) reported as -0.71

Entry `Clc1ccc(-c2c(Cl)ccc(Cl)c2Cl)cc1` , log10 biotransformation half-life (days) reported as 2.35

Entry `Clc1ccc(Cl)c(-c2ccc(Cl)c(Cl)c2Cl)c1` , log10 biotransformation half-life (days) reported as 2.31

Entry `CCCCCC[Si](O)(CCCCCC)CCCCCC` , log10 biotransformation half-life (days) reported as 0.04

Entry `Cc1cc(C)cc(C)c1` , log10 biotransformation half-life (days) reported as 0.4

Entry `Clc1cccc(Cl)c1Cl` , log10 biotransformation half-life (days) reported as 0.92

Entry `CNC(=O)Oc1ccccc1C(C)C` , log10 biotransformation half-life (days) reported as -1.25

Entry `C=CCCCCCCCCCCC` , log10 biotransformation half-life (days) reported as 0.73

Entry `CC(C)(OOC(C)(C)c1ccccc1)c1ccccc1` , log10 biotransformation half-life (days) reported as -0.01

Entry `Clc1cc2c(cc1Cl)Oc1c(Cl)c(Cl)c(Cl)c(Cl)c1O2` , log10 biotransformation half-life (days) reported as 1.27

Entry `CCNc1nc(Cl)nc(NCC)n1` , log10 biotransformation half-life (days) reported as -0.94

Entry `c1ccc2c(c1)ccc1nc3c(ccc4ccccc43)cc12` , log10 biotransformation half-life (days) reported as -0.14

Entry `Brc1c(Br)c(Br)c(Br)c(Br)c1Br` , log10 biotransformation half-life (days) reported as 0.43
